system_name: EPHB2 (UniProt P29323)
Sequence (P29323 whole entry, looked up): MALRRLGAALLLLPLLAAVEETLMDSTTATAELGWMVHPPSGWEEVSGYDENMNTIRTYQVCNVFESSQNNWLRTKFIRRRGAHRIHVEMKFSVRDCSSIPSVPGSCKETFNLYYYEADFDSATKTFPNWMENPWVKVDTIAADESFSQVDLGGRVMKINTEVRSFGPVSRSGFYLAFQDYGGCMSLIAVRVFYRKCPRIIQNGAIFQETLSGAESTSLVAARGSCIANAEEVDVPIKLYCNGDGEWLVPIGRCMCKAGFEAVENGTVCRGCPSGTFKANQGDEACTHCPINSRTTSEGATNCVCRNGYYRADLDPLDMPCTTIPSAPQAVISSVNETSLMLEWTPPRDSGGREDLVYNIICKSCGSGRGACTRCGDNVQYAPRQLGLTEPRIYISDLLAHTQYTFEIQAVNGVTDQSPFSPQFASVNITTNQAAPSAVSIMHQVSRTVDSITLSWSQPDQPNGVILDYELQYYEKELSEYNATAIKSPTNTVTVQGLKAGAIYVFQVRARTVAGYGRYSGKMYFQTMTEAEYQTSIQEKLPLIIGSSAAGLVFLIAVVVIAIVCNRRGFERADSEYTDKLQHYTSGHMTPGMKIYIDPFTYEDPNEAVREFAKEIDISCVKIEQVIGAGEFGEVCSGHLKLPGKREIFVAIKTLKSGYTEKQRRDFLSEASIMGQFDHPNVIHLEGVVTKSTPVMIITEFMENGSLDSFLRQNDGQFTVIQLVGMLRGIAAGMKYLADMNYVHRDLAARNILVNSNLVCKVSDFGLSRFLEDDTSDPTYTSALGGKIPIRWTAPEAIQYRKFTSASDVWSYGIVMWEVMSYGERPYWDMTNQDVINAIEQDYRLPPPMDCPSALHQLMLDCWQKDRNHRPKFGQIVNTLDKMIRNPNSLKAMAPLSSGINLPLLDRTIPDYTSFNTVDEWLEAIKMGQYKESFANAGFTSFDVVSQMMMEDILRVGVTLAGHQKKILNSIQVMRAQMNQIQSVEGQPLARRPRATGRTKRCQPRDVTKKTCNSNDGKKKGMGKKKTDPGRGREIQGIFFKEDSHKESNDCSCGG
assay_protocol: phosphorylation enrichment, bacterial display (enrichment ratio); higher = better substrate or ligand; peptides without Tyr show the background;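 also: 11-residue human phosphosite peptides and single-mutation variants displayed on the E. coli surface, counted by deep sequencing, each peptide's frequency after selection divided by its frequency in the unselected input library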;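 also: frequency after pTyr selection over input frequency; kinase dosed for 20-30% of maximal phosphorylation in three min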
Consider the following sequences and their measured phosphorylation enrichment readings.
Reply with the value as a number alone.

Previously resolved entries follow.
- primary_sequence: "GLNKGYRMVVN [HINT1_Y94]"
  phosphorylation enrichment: 0.392
- primary_sequence: "LYEDCYLLGTS [ASS1_Y87_R86C]"
  phosphorylation enrichment: 3.42
- primary_sequence: "GIKAAYEAERG [LMNA_Y81_L85R]"
  phosphorylation enrichment: 0.363
- primary_sequence: "SLALFYRNVFH [RBL1_Y792_K794N_YF]"
  phosphorylation enrichment: 1.02
- primary_sequence: "MEIHAYHKLLE [LMNA_Y376_R377H]"
  phosphorylation enrichment: 0.588
- primary_sequence: "IEPGIYIPEDD [XPNPEP3_Y455]"
  phosphorylation enrichment: 0.523
- primary_sequence: "EAIAKYDLKAT [GRB2_Y7_F9L]"
  phosphorylation enrichment: 0.464
- primary_sequence: "RCLKDYGEFEV [GINS1_Y156]"
  phosphorylation enrichment: 0.626

Let us move to another entry and its phosphorylation enrichment.
# input phosphorylation enrichment lookup needed for RKGGSYSQAAS [HLA-A_Y344_T345S] , thanks.
# output 0.491

Where do the numbers come from? From the supplement of paper PMC10065799.
